- Tested on: Semliki Forest virus
- ASSAY_INFO: Antiviral activity against semliki forest virus (SFV) in Vero cell culture lines
- Type: functional
MIC reference
OUTCOME_MEASURE: MIC

In [3]: df
Out[3]:
                                   compound     observed
0      Nc1ncnc2c1ncn2C[C@H](O)CO [(S)-DHPA]  > 400 µg/mL
1  CCCOC(=O)C(N)CCSC[C@H]1OC(n2ccc3c(N)ncnc32)[C@H](O)[C@@H]1O (stereo not given in full)  > 150 µg/mL
2  Nc1nccc2ncn([C@H]3C[C@H](O)[C@@H](CO)O3)c12  > 400 µg/mL
3  CCOC(=O)C(CCSC[C@H]1OC(n2ccc3c(N)ncnc32)[C@H](O)[C@@H]1O)NC(C)=O (stereo not given in full)  > 100 µg/mL
4  Nc1ncnc2c1CCN2[C@@H]1O[C@H](CSCCC(N)C(=O)O)C[C@H]1O (stereo not given in full)  > 200 µg/mL
5  Nc1ncnc2c1ncn2[C@@H]1O[C@H](CCl)C[C@H]1O   > 40 µg/mL
6  COC(=O)C(N)CCSC[C@H]1OC(n2ccc3c(N)ncnc32)[C@H](O)[C@@H]1O (stereo not given in full)  > 200 µg/mL
7  CC(=O)NC(CCSC[C@H]1OC(n2ccc3c(N)ncnc32)[C@H](O)[C@@H]1O)C(=O)OC(C)C (stereo not given in full)  > 200 µg/mL
8  Nc1ncnc2c1ncn2[C@@H]1O[C@H](CO)C[C@H]1O [CORDYCEPIN]  > 100 µg/mL
9  CCOC(=O)C(N)CCSC[C@H]1OC(n2ccc3c(N)ncnc32)[C@H](O)[C@@H]1O (stereo not given in full)  > 100 µg/mL

---

- System: Coxsackievirus B4
- ASSAY_INFO: Antiviral activity against coxsackie B4 in Vero cell culture lines
- Format: functional
- CONDITION_LABEL: Enterovirus B
OUTCOME_MEASURE: MIC

In [3]: df
Out[3]:
                                    compound     observed
 0  CCCOC(=O)C(CCSC[C@H]1OC(n2ccc3c(N)ncnc32)[C@H](O)[C@@H]1O)NC(=O)COC (some centres not stated)     15 µg/mL
 1  CC(C)(C)C(=O)ONC(CCSC[C@H]1OC(n2ccc3c(N)ncnc32)[C@H](O)[C@@H]1O)C(=O)OCC[Si](C)(C)C (some centres not stated)     70 µg/mL
 2   Nc1ncnc2c1CCN2[C@@H]1O[C@H](CO)C[C@H]1O      7 µg/mL
 3  Nc1ncnc2c([C@@H]3O[C@H](CSCCC(N)C(=O)O)C[C@H]3O)n[nH]c12 (some centres not stated)   > 40 µg/mL
 4  COC(=O)C(CCSC[C@@H]1C[C@@H](O)[C@H](n2ccc3c(N)ncnc32)O1)NC(=O)C(F)(F)F (some centres not stated)  > 200 µg/mL
 5  CC(C)(C)C(=O)OCn1nc([C@@H]2O[C@H](CO)C[C@H]2O)c2ncnc(N)c21  > 100 µg/mL
 6  Nc1ncnc2c1ccn2C1O[C@H](CSCCC(NC(=O)C(F)(F)F)C(=O)O)[C@@H](O)[C@H]1O (some centres not stated)  > 400 µg/mL
 7  Nc1nccc2c1ncn2[C@@H]1O[C@H](CSCCC(N)C(=O)O)C[C@H]1O (some centres not stated)  > 400 µg/mL
 8  CCOC(=O)C(N)CCSC[C@H]1OC(n2ccc3c(N)ncnc32)[C@H](O)[C@@H]1O (some centres not stated)     20 µg/mL
 9  Nc1ncnc2c(C3O[C@H](CCl)[C@@H](O)[C@H]3O)n[nH]c12 (some centres not stated)     70 µg/mL
10  COCC(=O)NC(CCSC[C@H]1OC(n2ccc3c(N)ncnc32)[C@H](O)[C@@H]1O)C(=O)O (some centres not stated)  > 400 µg/mL
11        Nc1nccc2c1ncn2[C@H]1CC[C@@H](CO)O1  > 100 µg/mL
12   Nc1nccc2c1ncn2[C@@H]1O[C@H](CO)C[C@H]1O  > 100 µg/mL
13  CCOC(=O)C(CCSC[C@H]1OC(n2ccc3c(N)ncnc32)[C@H](O)[C@@H]1O)NC(=O)COC (some centres not stated)  > 150 µg/mL
14  Nc1ncnc2c(C3O[C@H](CSCCC(N)C(=O)O)[C@@H](O)[C@H]3O)n[nH]c12 (some centres not stated)  > 100 µg/mL
15  CC(C)(C)C(=O)OCn1nc([C@@H]2O[C@H](CO)[C@@H](O)[C@H]2O)c2ncnc(N)c21   > 10 µg/mL
16  CC(=O)NC(CCSC[C@H]1OC(n2ccc3c(N)ncnc32)[C@H](O)[C@@H]1O)C(=O)OC(C)C (some centres not stated)     40 µg/mL
17  Nc1ncnc2c1CCN2[C@@H]1O[C@H](CSCCC(N)C(=O)O)C[C@H]1O (some centres not stated)  > 200 µg/mL
18      Nc1ncnc2c1ncn2C[C@H](O)CO [(S)-DHPA]   > 70 µg/mL
19  CCOC(=O)C(CCSC[C@H]1OC(n2ccc3c(N)ncnc32)[C@H](O)[C@@H]1O)NC(=O)C(F)(F)F (some centres not stated)      7 µg/mL
20  NC(=O)c1ncn([C@@H]2O[C@H](CO)[C@@H](O)[C@H]2O)n1 [RIBAVIRIN]   > 70 µg/mL
21  Nc1ncnc2c1ccn2[C@@H]1O[C@H](CO)[C@@H](O)[C@H]1O [TUBERCIDIN]   0.07 µg/mL
22  CCCCOC(=O)C(N)CCSC[C@H]1OC(n2ccc3c(N)ncnc32)[C@H](O)[C@@H]1O (some centres not stated)  > 200 µg/mL
23  CC(=O)NC(CCSC[C@H]1OC(n2ccc3c(N)ncnc32)[C@H](O)[C@@H]1O)C(=O)O (some centres not stated)  > 400 µg/mL
24  COC(=O)C(N)CCSC[C@H]1OC(n2ccc3c(N)ncnc32)[C@H](O)[C@@H]1O (some centres not stated)  > 100 µg/mL
25  CC(C)OC(=O)C(N)CCSC[C@H]1OC(n2ccc3c(N)ncnc32)[C@H](O)[C@@H]1O (some centres not stated)  > 100 µg/mL
26  Nc1ncnc2c1ncn2[C@H]1C[C@H](O)[C@@H](CO)O1 [DEOXYADENOSINE]  > 200 µg/mL
27  Nc1ncnc2c1ncn2[C@@H]1O[C@H](CO)C[C@H]1O [CORDYCEPIN]  > 100 µg/mL
28  CC(C)(C)C(=O)ONC(CCSC[C@H]1OC(n2ccc3c(N)ncnc32)[C@H](O)[C@@H]1O)C(=O)O (some centres not stated)  > 400 µg/mL
29  CCOC(=O)C(CCSC[C@H]1OC(n2ccc3c(N)ncnc32)[C@H](O)[C@@H]1O)NC(C)=O (some centres not stated)     20 µg/mL
30  Nc1nccc2c1ncn2[C@@H]1O[C@H](CO)[C@@H](O)[C@H]1O  > 200 µg/mL
31  CC(C)OC(=O)C(CCSC[C@H]1OC(n2ccc3c(N)ncnc32)[C@H](O)[C@@H]1O)NC(=O)C(F)(F)F (some centres not stated)   > 50 µg/mL
32  Nc1ncnc2c1ncn2[C@@H]1O[C@H](CSCCC(N)C(=O)O)C[C@H]1O (some centres not stated)  > 200 µg/mL
33  Nc1ncnc2c([C@@H]3O[C@H](CO)C[C@H]3O)n[nH]c12  > 200 µg/mL
34  CCCOC(=O)C(CCSC[C@H]1OC(n2ccc3c(N)ncnc32)[C@H](O)[C@@H]1O)NC(C)=O (some centres not stated)     20 µg/mL
35  Nc1nccc2ncn([C@H]3C[C@H](O)[C@@H](CO)O3)c12  > 400 µg/mL
36  Nc1ncnc2c1ncn2[C@@H]1O[C@H](CCl)C[C@H]1O   > 40 µg/mL

---

- Test system: Semliki Forest virus
- ASSAY_INFO: Antiviral activity against semliki forest virus (SFV) in Vero cell culture lines
- Type: functional
OUTCOME_MEASURE: MIC

>>> df
                                   molecule     system_under_test     observed
0  CC(C)(C)C(=O)ONC(CCSC[C@H]1OC(n2ccc3c(N)ncnc32)[C@H](O)[C@@H]1O)C(=O)O (stereo not given in full)  Semliki Forest virus  > 400 µg/mL
1  Nc1ncnc2c(C3O[C@H](CCl)[C@@H](O)[C@H]3O)n[nH]c12 (stereo not given in full)  Semliki Forest virus  > 100 µg/mL
2  CC(=O)NC(CCSC[C@H]1OC(n2ccc3c(N)ncnc32)[C@H](O)[C@@H]1O)C(=O)O (stereo not given in full)  Semliki Forest virus  > 400 µg/mL
3  Nc1ncnc2c1ccn2C1O[C@H](CSCCC(NC(=O)C(F)(F)F)C(=O)O)[C@@H](O)[C@H]1O (stereo not given in full)  Semliki Forest virus  > 400 µg/mL
4  CC(C)(C)C(=O)OCn1nc([C@@H]2O[C@H](CO)C[C@H]2O)c2ncnc(N)c21  Semliki Forest virus  > 100 µg/mL
5  Nc1ncnc2c([C@@H]3O[C@H](CO)C[C@H]3O)n[nH]c12  Semliki Forest virus  > 400 µg/mL
6  COCC(=O)NC(CCSC[C@H]1OC(n2ccc3c(N)ncnc32)[C@H](O)[C@@H]1O)C(=O)OC(C)C (stereo not given in full)  Semliki Forest virus  > 200 µg/mL
7  Nc1ncnc2c([C@@H]3O[C@H](CSCCC(N)C(=O)O)C[C@H]3O)n[nH]c12 (stereo not given in full)  Semliki Forest virus   > 40 µg/mL
8   Nc1ncnc2c1CCN2[C@@H]1O[C@H](CO)C[C@H]1O  Semliki Forest virus   > 40 µg/mL
9  Nc1nccc2c1ncn2[C@@H]1O[C@H](CO)[C@@H](O)[C@H]1O  Semliki Forest virus  > 400 µg/mL

Values from ChEMBL document CHEMBL1126104
